System: T47D cells
Assay: Cell-based assay: anti-proliferative activity, Cell Counting Kit-8, 72 hours (T47D)
Details: Homo sapiens, T47D, 72 h
Structures can show the parent of a compound that is named as a salt.
Use IC50 to assign classes; range list: interval 1: < 0.1 µM; interval 2: ≥ 0.1 µM and < 0.3 µM; interval 3: ≥ 0.3 µM

Category of CC(C)C(=O)c1cnc2ccc(-c3cc(Cl)c(O)c(Cl)c3)cc2c1Nc1ccc(CN(C)C)cc1 , please.
interval 2

Category of O=C(c1cnc2ccc(-c3cc(Cl)c(O)c(Cl)c3)cc2c1Nc1ccc(NC2CCNC2)nc1)C1CC1 (stereo not drawn) , please.
interval 3

Category of CC(=O)c1cnc2ccc(-c3cc(Cl)c(O)c(Cl)c3)cc2c1N[C@@H]1CCC[C@@H](CN(C)C)C1 , please.
interval 2

Category of CC(=O)c1cnc2ccc(-c3cc(Cl)c(O)c(Cl)c3)cc2c1N[C@H]1CC[C@H](N(C)C)CC1 , please.
interval 1

Category of O=C(c1cnc2ccc(-c3cc(F)c(O)c(Cl)c3)cc2c1Nc1ccc(NC2CCCNC2)nc1)C1CC1 (stereo not drawn) , please.
interval 2

Category of CC(=O)c1cnc2ccc(-c3cc(Cl)c(O)c(Cl)c3)cc2c1N[C@H]1CC[C@H](NC(=O)[C@H](C)N)CC1 , please.
interval 1

Category of CC(C)C(=O)c1cnc2ccc(-c3cc(F)c(O)c(Cl)c3)cc2c1Nc1ccc(N2CCNCC2)nc1 , please.
interval 2

Category of COc1cc(-c2ccc3ncc(C(C)=O)c(N[C@H]4CC[C@H](CN(C)C)CC4)c3c2)cc(Cl)c1O , please.
interval 2

Category of O=C(c1cnc2ccc(-c3cc(F)c(O)c(Cl)c3)cc2c1Nc1cncc(CCN2CCCC2)c1)C1CC1 , please.
interval 3

Category of CCC(=O)c1cnc2ccc(-c3cc(Cl)c(O)c(Cl)c3)cc2c1Nc1ccc(CN(C)C)cc1 , please.
interval 1

Category of CC(=O)c1cnc2ccc(-c3cc(F)c(O)c(Cl)c3)cc2c1Nc1ccc(N2CCC(N(C)C)C2)nc1 (stereo not drawn) , please.
interval 2

Category of CC(=O)c1cnc2ccc(-c3cc(Cl)c(O)c(Cl)c3)cc2c1N[C@H]1CC[C@H](CN2CCCC2)CC1 , please.
interval 2

Category of CC(=O)c1cnc2ccc(-c3cc(Cl)c(O)c(Cl)c3)cc2c1N[C@H]1CC[C@H](CN2CCC(N)C2)CC1 (stereo partly drawn) [Example 779, hydrochloride] , please.
interval 2

Category of COc1cc(-c2ccc3ncc(C(=O)C4CC4)c(N[C@H]4CC[C@@H](CN(C)C)CC4)c3c2)cc(Cl)c1O , please.
interval 2

Category of COc1cc(-c2ccc3ncc(C(=O)C4CC4)c(Nc4ccc(CCN(C)C)cc4)c3c2)cc(Cl)c1O , please.
interval 3

Category of N#Cc1ncc(-c2ccc3ncc(C(=O)C4CC4)c(Nc4ccc(CN)cc4)c3c2)cn1 , please.
interval 2

Category of COc1cc(-c2ccc3ncc(S(C)(=O)=O)c(Nc4ccc(CN(C)C)cc4)c3c2)cc(Cl)c1O , please.
interval 3

Category of CC(=O)c1cnc2ccc(-c3cc(F)c(O)c(Cl)c3)cc2c1Nc1cccc(CCN2CCCC2)c1 , please.
interval 3

Category of CNC1CCN(c2ccc(Nc3c(C(=O)C4CC4)cnc4ccc(-c5cc(Cl)c(O)c(Cl)c5)cc34)cn2)C1 (stereo not drawn) [Example 804, trihydrochloride] , please.
interval 1

Category of N[C@H]1CC[C@H](Nc2c(C(=O)C3CC3)cnc3c(F)cc(-c4cc(F)c(O)c(Cl)c4)cc23)CC1 , please.
interval 3

Sourced from patent US9120749B2
